- Protocol notes: Clearance in Sprague-Dawley rat at 0.075 mg/kg, iv measured up to 30 mins by LC-MS/MS analysis
- Format: ADME, organism-based
- Run conditions: in vivo
Endpoint name: clearance (mL/min/kg)

1) COc1ccc(-c2ccc3c(c2)COC3=O)n2nc(C3(C(=O)OCC(C)C)CC3)nc12
930

* * *

- Protocol notes: Clearance in human liver microsomes at 0.5 uM incubated for 40 mins in presence of NADPH by LC-MS/MS analysis
- Assay type: ADME, Microsome
- Run conditions: read-out: CLH
Endpoint name: CLint scaled at 0.5 µM (mL/min/kg)

1) COc1ccc(-c2ccc3c(c2)COC3=O)n2nc(C3(C(=O)OC4COC4)CC3)nc12
97
2) COc1ccc(-c2cccc(C#N)c2)n2nc(C3(CCC(=O)O)CC3)nc12
16
3) COc1ccc(-c2cccc3c2COC3=O)n2nc(C3(C(=O)NCC(C)C)CC3)nc12
95
4) COc1ccc(-c2ccc3c(c2)COC3=O)n2nc(C3(C(=O)O[C@@H]4CCOC4)CC3)nc12
101
5) CCOC(=O)C1(c2nc3c(OC)ccc(-c4ccc5c(c4)COC5=O)n3n2)CC1
140
6) COc1ccc(-c2ccc3c(c2)COC3=O)n2nc(C3(C(=O)O[C@H]4CCOC4)CC3)nc12
77
7) COc1ccc(-c2ccc3c(c2)COC3=O)n2nc(C3(C(=O)OC[C@H](C)CO)CC3)nc12
66
8) COc1ccc(-c2ccc3c(c2)COC3=O)n2nc(C3(C(=O)OC(C)C)CC3)nc12
97
9) CCCOC(=O)C1(c2nc3c(OC)ccc(-c4ccc5c(c4)COC5=O)n3n2)CC1
139
10) COc1ccc(-c2cccc(C#N)c2)n2nc(C3(CCCO)CC3)nc12
33
11) COc1ccc(-c2ccc3c(c2)COC3=O)n2nc(C3(C(=O)OC4CCOCC4)CC3)nc12
97

This collection of values is drawn from ChEMBL document CHEMBL4673252.
